- TARGET SYSTEM: T1, Anti-CD28 Fab (SEQ ID NOs: 696, 697)
- T1 construct: In the phage ELISA the Fab was biotinylated and captured on neutravidin coated plates
- T1 sequence (VH, as listed by the source, chain 1 of 2): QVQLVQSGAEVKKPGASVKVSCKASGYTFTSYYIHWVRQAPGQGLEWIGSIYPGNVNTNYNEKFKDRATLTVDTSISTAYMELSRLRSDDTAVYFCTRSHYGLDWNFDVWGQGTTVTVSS
- T1 sequence (VL, as listed by the source, chain 2 of 2): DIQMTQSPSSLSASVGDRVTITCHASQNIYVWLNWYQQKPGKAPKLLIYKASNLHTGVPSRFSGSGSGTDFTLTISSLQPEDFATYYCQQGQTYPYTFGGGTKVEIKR
- TEST DESCRIPTION: phage binding ELISA; biotinylated anti-CD28 Fab on neutravidin plate, bound phage detected with anti-M13 HRP
Where no end group is shown, it is not given here.
READOUT TYPE: Anti-CD28 Fab (SEQ ID NOs: 696, 697) signal

INSERT INTO results (binder, recorded_number) VALUES
  ('SCAAVFPYPWPPCF (peptide, not shown: large carriers, cysteine pairing not given here; also: fused to phage pIII protein, pIII and linker not given here, Clonal phage of the Peptide-92 optimisation library, tested as crude phage supernatant) [Phage-1477]', 1.75),
  ('LCEEFFHYSWPVCL (peptide, not shown: large carriers, cysteine pairing not given here; also: displayed as fusion to phage pIII, pIII and linker not given here, Clonal phage of the Peptide-92 optimisation library, tested as crude phage supernatant) [Phage-1481]', 1.74);
